# testProtocol: gradient 5% acetonitrile 3 min, to 50% in 2 min, to 85% in 15 min, held 3 min, 100 µL/min
# conditionInfo: column: Zorbax Extend-C18 2.1 x 50 mm; eluents: water / acetonitrile, 0.1% formic acid
property: RP-LC retention time (s)
Answers are plain numbers, in s.

COc1ccc(-c2c(C)noc2NC(C)=O)cc1S(=O)(=O)N1CCC2(CC1)OCCO2 :: 680

Give me RP-LC retention time for each of these molecules, listed below.
1. Cc1cccc(NS(=O)(=O)c2c(C)sc(C)c2-c2cc(C(F)(F)F)on2)c1
2. Cc1nc(CNC(=O)C2CCN(C(=O)Nc3cccc(Br)c3)CC2)cs1
3. CCn1ccc(C(=O)Nc2cccc(OCc3nnc(-c4ccccc4)o3)c2)n1
4. COc1ccc(NS(=O)(=O)c2ccc(-c3nnc(C4CCC4)o3)o2)cc1F
5. Cc1cc(C(=O)Nc2nc(-c3nc4ccccc4s3)cs2)c(C)o1
6. CCOc1ccc(S(=O)(=O)N2CCCC(C(N)=O)C2)cc1C (centres undefined)

1: 1180; 2: 707; 3: 891; 4: 868; 5: 1040; 6: 747

Below are some molecules; for each one, tell me its RP-LC retention time.
1. CCNc1cc(N2CCCC(CCC(=O)Nc3ccccc3)C2)ncn1 (centres undefined)
2. COCCN1C(=O)c2ccccc2C(C(=O)N2CCN(Cc3ccccc3)CC2)C1c1cccs1 (centres undefined)
3. CCOc1ccccc1NC(=O)N1CCCC1c1nc(-c2cccc(C)c2)no1 (centres undefined)
4. Cn1cccc1C(=O)N1C[C@@H]2C[C@H]1C[C@@H]2NC(=O)c1cccs1
5. O=C(C1CCN(S(=O)(=O)c2cc(-c3noc(C4CCC4)n3)cs2)CC1)N1CCCCCC1
6. CC1(C(=O)N2CC(F)(F)C[C@H]2c2nnc(-c3ccccc3)o2)CC1
7. Cc1ccc(CCC(=O)Nc2nc(-c3ccc4c(c3)N(C)C(=O)C(C)O4)cs2)cc1 (centres undefined)

669
661
858
700
1050
834
1070

* * *

# testProtocol: gradient 5% acetonitrile 3 min, to 50% in 2 min, to 85% in 15 min, held 3 min, 100 µL/min
# conditionInfo: column: Zorbax Extend-C18 2.1 x 50 mm; eluents: water / acetonitrile, 0.1% formic acid
Please note: RP-LC retention time exactly at 1000 s is 0.0. Only values below 1000 s get 1.0.

These recorded examples may help you get a feel for the data.
O=C(NCc1ccco1)C1CCN(c2ccc(Sc3ccccc3)nn2)CC1 :: 0.0
O=C(CN1CCCC(COCc2ccccc2)C1)N1CCN(c2ccccc2)CC1 (stereo not given) :: 1.0
Cc1ccc(-c2cn3c(CC(=O)N4CCN(c5cc(Cl)ccc5C)CC4)csc3n2)cc1C :: 0.0
CC(C)n1c(CCNC(=O)c2ccccc2)nc2cccnc21 :: 1.0
O=C(NCc1ccccc1)c1ccc2c(c1)Sc1ncccc1C(=O)N2C1CC1 :: 1.0
CCn1c(N2CCC(C(=O)NC3CCCCC3)CC2)cc(=O)n(C)c1=O :: 1.0

In the record for "NCc1nnnn1-c1ccc(Cl)cc1" , is RP-LC retention time less than 1000 s?
1.0

In the record for "Cn1c(=O)sc2cc(S(=O)(=O)N3CCC(C(=O)NCCc4nc5ccccc5[nH]4)CC3)ccc21" , is RP-LC retention time less than 1000 s?
1.0

Given Cc1ccc(NC(=O)C2CCCN(c3cn[nH]c(=O)c3)C2)cc1 (stereo not given) , is recorded RP-LC retention time strictly lower than 1000 s?
1.0

Does this compound meet the criterion RP-LC retention time < 1000 s? "COc1ccc2c(c1)C=C(C(=O)NCc1ccc(OC)c(OC)c1)CO2"
1.0

Hello, is RP-LC retention time of the following compound strictly smaller than 1000 s? "Cn1c(C(=O)NCCCN2CCC(Cc3ccccc3)CC2)cc2c(=O)n(C)c3ccccc3c21"
1.0

RP-LC retention time under 1000 s? Item: "O=S(=O)(Nc1ccc(F)cc1)c1cccc2cccnc12"
1.0

# TODO verify RP-LC retention time < 1000 s strictly for this compound: "CCOC(=O)c1cnc2c(C(F)(F)F)cccc2c1NCCN(C)C"
1.0

Below 1000 s on RP-LC retention time? Entry "CCc1nnc(-c2ccc3ccn(CC(=O)Nc4ccccc4C)c3c2)o1"
1.0

Regarding "O=C(COc1ccc(Cl)cc1)Nc1nc(-c2cccc3ccccc23)cs1" , kindly confirm whether its RP-LC retention time is beneath 1000 s.
0.0

Field: below-cutoff. Rule: recorded RP-LC retention time strictly less than 1000 s. Subject: "Cc1ccc(F)c(NS(=O)(=O)c2cc3n(c2)CCCNC3=O)c1"
1.0

# TODO verify RP-LC retention time < 1000 s strictly for this compound: "O=C(Nc1cnc(-c2ccc(Cl)cc2)nc1)c1ccc(Br)o1"
0.0
